# TGT: UniProtKB P34972
# Sequence (P34972 whole entry): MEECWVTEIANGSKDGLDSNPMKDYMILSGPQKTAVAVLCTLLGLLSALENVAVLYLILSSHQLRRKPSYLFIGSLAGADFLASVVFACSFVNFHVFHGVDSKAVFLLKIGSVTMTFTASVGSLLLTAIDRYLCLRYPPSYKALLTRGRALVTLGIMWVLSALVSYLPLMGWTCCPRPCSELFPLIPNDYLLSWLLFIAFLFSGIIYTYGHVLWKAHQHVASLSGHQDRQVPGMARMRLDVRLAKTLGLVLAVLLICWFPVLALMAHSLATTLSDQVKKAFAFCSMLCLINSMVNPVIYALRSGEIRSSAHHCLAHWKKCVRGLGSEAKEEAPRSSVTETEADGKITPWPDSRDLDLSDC
# ASSAY INFO: Displacement of [3H]WIN-55212-2 from human CB2 receptor expressed in CHO-K1 cells by liquid scintillation counting
MEASUREMENT KIND: pIC50
Numbers only, as −log10 of the molar value.

Example compounds with recorded pIC50:
COMPOUND	TGT	MEASUREMENT KIND	NUMBER
Cc1c(C(=O)c2ccccc2)cc(-c2ccccc2)n1Cc1ccc(Cl)cc1	UniProtKB P34972	pIC50	6.30
Cc1c(C(=O)NC2CC3CCC2C3)cc(-c2ccccc2)n1Cc1ccc(Cl)cc1 (configuration not stated)	UniProtKB P34972	pIC50	6.38
Cc1c(C(=O)NC2C3CC4CC(C3)CC2C4)c(Br)c(-c2ccccc2)n1Cc1ccc(Cl)cc1 (configuration not stated)	UniProtKB P34972	pIC50	6.91
Cc1c(C(=O)c2ccccc2)c(N)c(-c2ccccc2)n1Cc1ccc(Cl)cc1	UniProtKB P34972	pIC50	7.39

Below: the item to evaluate.
QUERY: Would you kindly share the measured pIC50 for Cc1c(C(=O)NC2C3CC4CC(C3)CC2C4)cc(-c2ccccc2)n1Cc1ccc(Cl)cc1 (configuration not stated) ?
RESULT: 7.96
